Recorded relative viability for the following molecules
# Test system: NCI-H2347
# procedure-text: relative viability (nuclei count vs DMSO), 5 days (fraction); higher = more cells survive
# test-conditions: first compound 0.08 µM
metric-name: relative viability

1. Oc1nc(-c2ccc(C(F)(F)F)cc2)nc2c1CSCC2 [XAV939] + Nc1nc2[nH]cc(CCc3ccc(C(=O)N[C@@H](CCC(=O)O)C(=O)O)cc3)c2c(=O)[nH]1 [Pemetrexed] (partner 0.2 µM) | 0.456
2. Oc1nc(-c2ccc(C(F)(F)F)cc2)nc2c1CSCC2 [XAV939] + Cc1nc(Nc2ncc(C(=O)Nc3c(C)cccc3Cl)s2)cc(N2CCN(CCO)CC2)n1 [Dasatinib] (partner 0.075 µM) | 0.258
3. Oc1nc(-c2ccc(C(F)(F)F)cc2)nc2c1CSCC2 [XAV939] + N=C(N)NC(=N)NCCc1ccccc1 [Phenformin] (partner 250 µM) | 0.396
4. C=C1C(=O)O[C@@H](CCCCCCCC)[C@@H]1C(=O)O [C-75] + Cc1nc(NC(=O)N2CCC[C@H]2C(N)=O)sc1-c1ccnc(C(C)(C)C(F)(F)F)c1 [Alpelisib] (partner 2 µM) | 1.01
5. Oc1nc(-c2ccc(C(F)(F)F)cc2)nc2c1CSCC2 [XAV939] + COc1cccc2cc(-c3nc([C@H]4CC[C@H](C(=O)O)CC4)n4ncnc(N)c34)[nH]c12 [OSI-027] (partner 0.5 µM) | 0.571
6. Oc1nc(-c2ccc(C(F)(F)F)cc2)nc2c1CSCC2 [XAV939] + COc1cc2c(Oc3ccc(NC(=O)C4(C(=O)Nc5ccc(F)cc5)CC4)cc3F)ccnc2cc1OCCCN1CCOCC1 [Foretinib] (partner 0.25 µM) | 0.797
7. Oc1nc(-c2ccc(C(F)(F)F)cc2)nc2c1CSCC2 [XAV939] + CS(=O)(=O)N1CCN(Cc2cc3nc(-c4cccc5[nH]ncc45)nc(N4CCOCC4)c3s2)CC1 [Pictilisib] (partner 1 µM) | 0.681

----------
Recorded relative viability for the following molecules
# Tested on: UMC-11
# procedure-text: relative viability (nuclei count vs DMSO), 5 days (fraction); higher = more cells survive
# test-conditions: first compound 0.1 µM
metric-name: relative viability

1. NC(=O)Nc1cc(-c2cccc(F)c2)sc1C(=O)N[C@H]1CCCNC1 [AZD7762] + C[C@@H](Oc1cc(-c2cnn(C3CCNCC3)c2)cnc1N)c1c(Cl)ccc(F)c1Cl [Crizotinib] (partner 1 µM) | 0.516
2. NC(=O)Nc1cc(-c2cccc(F)c2)sc1C(=O)N[C@H]1CCCNC1 [AZD7762] + Nc1nc2[nH]cc(CCc3ccc(C(=O)N[C@@H](CCC(=O)O)C(=O)O)cc3)c2c(=O)[nH]1 [Pemetrexed] (partner 0.2 µM) | 0.782
3. NC(=O)Nc1cc(-c2cccc(F)c2)sc1C(=O)N[C@H]1CCCNC1 [AZD7762] + CC(C)C[C@H](NC(=O)[C@H](Cc1ccccc1)NC(=O)c1cnccn1)B(O)O [Bortezomib] (partner 0.002 µM) | 0.409
4. NC(=O)Nc1cc(-c2cccc(F)c2)sc1C(=O)N[C@H]1CCCNC1 [AZD7762] + Cc1nc(Nc2ncc(C(=O)Nc3c(C)cccc3Cl)s2)cc(N2CCN(CCO)CC2)n1 [Dasatinib] (partner 0.075 µM) | 0.407
5. NC(=O)Nc1cc(-c2cccc(F)c2)sc1C(=O)N[C@H]1CCCNC1 [AZD7762] + O=C(c1cc(Cc2n[nH]c(=O)c3ccccc23)ccc1F)N1CCN(C(=O)C2CC2)CC1 [Olaparib] (partner 8 µM) | 0.277
